Recorded below: MIC, system E. coli 25922.
MEASURED ENDPOINT: MIC (µg/mL)

compound=COc1cccc2sc(C(=O)[C@@H]3CC[C@@H](NCc4ccc5c(n4)NC(=O)CS5)CO3)nc12 reported=16
compound=COc1cccc2sc(C(=O)C3CCN(CC(=O)c4ccc5c(c4)NC(=O)CO5)CC3)nc12 reported=16
compound=COc1cccc2sc(C(=O)[C@H]3CC[C@H](NCc4ccc5c(n4)NC(=O)CS5)CC3)nc12 reported=16
compound="O=C1CSc2ccc(CNC3CCC(C(=O)c4nc5ccccc5s4)CC3)cc2N1 (stereo not drawn)" reported=0.5
compound=Cc1cccc2sc(C(=O)[C@H]3CC[C@H](NCc4ccc5c(c4)NC(=O)CS5)CC3)nc12 reported=1
compound=COc1cccc2sc(O[C@H]3CC[C@H](NCc4ccc5c(c4)NC(=O)CS5)CC3)nc12 reported=16
